# assay target: IDH1 R132C (Homo sapiens, UniProt O75874, R132C)
# Construct: 6xHis
# Sequence (O75874 whole entry R132C): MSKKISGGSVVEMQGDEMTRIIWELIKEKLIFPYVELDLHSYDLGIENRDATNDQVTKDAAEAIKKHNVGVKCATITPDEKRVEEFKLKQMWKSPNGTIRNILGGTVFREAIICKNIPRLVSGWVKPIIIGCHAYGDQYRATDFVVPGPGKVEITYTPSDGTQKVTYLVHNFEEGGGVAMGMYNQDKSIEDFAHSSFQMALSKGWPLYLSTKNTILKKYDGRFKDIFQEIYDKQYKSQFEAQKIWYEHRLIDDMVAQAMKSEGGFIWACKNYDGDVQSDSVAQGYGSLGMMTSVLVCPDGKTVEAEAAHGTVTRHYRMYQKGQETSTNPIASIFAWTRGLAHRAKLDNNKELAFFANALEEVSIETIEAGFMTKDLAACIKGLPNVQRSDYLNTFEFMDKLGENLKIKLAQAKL
# test details: Biochemical assay for IDH inhibition (NADPH fluorescence), mutant IDH1 R132C
# experimental conditions: 25 nM IDH1-R132C, 1 hour pre-incubation, in triplet
pIC50: −log10 of the molar value.
Quick list: pIC50 per entry.
metric name: pIC50

INSERT INTO results (smiles_record, assay_target, result) VALUES
  ('CCN1Cc2c(ccnc2N[C@@H](C)c2cc(F)c(-c3cc(C(C)(C)F)cc(OC)n3)cc2F)C1=O', 'IDH1 R132C (Homo sapiens, UniProt O75874, R132C)', '> 7.00'),
  ('CCN1Cc2c(ccnc2N[C@@H](C)c2ccc(-c3ccnc(CC4CC4)c3)c(F)c2)C1=O', 'IDH1 R132C (Homo sapiens, UniProt O75874, R132C)', '6.30 to 7.00'),
  ('CCN1Cc2c(ccnc2N[C@@H](C)c2cc(F)c(-c3cc(OC(C)(C)C)c(Cl)cn3)cc2F)C1=O', 'IDH1 R132C (Homo sapiens, UniProt O75874, R132C)', '> 7.00'),
  ('CCN1Cc2c(ccnc2N[C@@H](C)c2ncc(-c3ccccc3)cn2)C1=O', 'IDH1 R132C (Homo sapiens, UniProt O75874, R132C)', '< 6.00'),
  ('CCN1Cc2c(ccnc2N[C@@H](C)c2cc(F)c(-c3cc(C(C)(C)C)c(OC)cn3)cc2F)C1=O', 'IDH1 R132C (Homo sapiens, UniProt O75874, R132C)', '> 7.00'),
  ('CCN1Cc2c(ccnc2N[C@@H](C)c2cc(F)c(-c3cc(NC(C)(C)C)cc(C)n3)cc2F)C1=O', 'IDH1 R132C (Homo sapiens, UniProt O75874, R132C)', '6.30 to 7.00'),
  ('CCN1Cc2c(ccnc2N[C@@H](C)c2ccc(-c3ccc(C(F)(F)F)nc3)c(F)c2)C1=O', 'IDH1 R132C (Homo sapiens, UniProt O75874, R132C)', '< 6.00');

* * *

Below, each of the molecules is paired with its reported pIC50 value.
# assay target: IDH (endogenous IDH1 R132C) in HT1080 cell (Homo sapiens, UniProt O75874, R132C)
# Construct: which harbor endogenous heterozygous IDH1 R132C and R132H mutation respectively and accumulate D-2-HG
# test details: Cell-based assay for IDH inhibition (decrease of D-2-HG) in HT1080 cells
# experimental conditions: human fibrosarcoma cell line HT1080, 16 hours treatment, D-2-HG by LC-MS, in triplet
pIC50: −log10 of the molar value.
metric name: pIC50

INSERT INTO assay_data (molecule, metric_name, result) VALUES
  ('C[C@H](Nc1nccc2c1CN(CC(F)F)C2=O)c1ccc(-c2ccnc(C(C)(C)C)c2)c(F)c1 [Compound 37]', 'pIC50', '6.00 to 6.30'),
  ('CCN1Cc2c(ccnc2N[C@@H](C)c2ccc(-c3ccnc(C4(O)CCC4)c3)c(F)c2)C1=O [Compound 78]', 'pIC50', '6.00 to 6.30'),
  ('Cc1ccc(Oc2ccc([C@H](C)Nc3nccc4c3CN(CCF)C4=O)cc2F)cc1 [Compound 16]', 'pIC50', '< 6.00'),
  ('CCN1Cc2c(ccnc2N[C@@H](C)c2ccc(-c3ccnc(C(O)C4CC4)c3)c(F)c2)C1=O (stereo partly shown) [Compound 85]', 'pIC50', '< 6.00');
